For each of the binders below, state its Max MFI.
Biological target: T1, human tissue factor (TF), membrane-bound on cells (human, UniProt P13726 33-295)
T1 construct: whole, on cells; also called cellular TF
Assay: FACS, TF transfected CHO cells (S1015-TF), 7.5 µg/mL
Protocol: Cells were resuspended in PBS (2×10⁶ cells/ml), put in 96-well V-bottom plates (50 μl/well). 50 μl of serially diluted HuMab in FACS buffer (PBS supplemented with 0.1% BSA and 0.02% Na-azide) was added to the cells and incubated for 30 minutes on ice. […] After 30 minutes on ice (in the dark), cells were washed three times, and specific binding of the HuMabs was detected by flow cytometry on a FACSCalibur (BD Biosciences). […]
Answers are plain numbers.

binder="anti-TF HuMab 109 (antibody, V domains shown, Human monoclonal antibody from HuMab mice) VH: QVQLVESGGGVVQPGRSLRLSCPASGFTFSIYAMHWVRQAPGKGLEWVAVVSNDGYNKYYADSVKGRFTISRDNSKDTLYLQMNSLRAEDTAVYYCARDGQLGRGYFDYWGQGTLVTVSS VL: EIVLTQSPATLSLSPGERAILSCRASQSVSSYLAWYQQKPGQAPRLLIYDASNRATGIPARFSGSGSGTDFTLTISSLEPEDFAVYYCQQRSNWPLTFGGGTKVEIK" meas_value=5630
binder="anti-TF HuMab 011 (antibody, V domains shown, Human monoclonal antibody from HuMab mice; also called HuMab-TF-11) VH: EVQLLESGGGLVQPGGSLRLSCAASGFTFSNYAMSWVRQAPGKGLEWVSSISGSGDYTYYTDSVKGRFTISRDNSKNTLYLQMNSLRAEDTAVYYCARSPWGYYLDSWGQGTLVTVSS VL: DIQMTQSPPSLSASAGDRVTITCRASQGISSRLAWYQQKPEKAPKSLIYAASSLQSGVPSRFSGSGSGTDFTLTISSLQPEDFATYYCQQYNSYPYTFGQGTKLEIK" meas_value=5650
binder="anti-TF HuMab 044 (antibody, V domains shown, Human monoclonal antibody from HuMab mice) VH: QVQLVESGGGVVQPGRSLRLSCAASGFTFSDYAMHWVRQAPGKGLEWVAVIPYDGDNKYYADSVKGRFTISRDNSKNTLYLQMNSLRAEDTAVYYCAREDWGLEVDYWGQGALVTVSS VL: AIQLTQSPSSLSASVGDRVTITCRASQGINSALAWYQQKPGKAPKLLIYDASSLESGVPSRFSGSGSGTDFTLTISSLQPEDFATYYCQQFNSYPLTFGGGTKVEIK" meas_value=5020

Lab note: next binder to report on.
## Task If you can, please state the reported Max MFI value of anti-TF HuMab 013 (antibody, V domains shown, Human monoclonal antibody from HuMab mice; also called HuMab-TF-13) VH: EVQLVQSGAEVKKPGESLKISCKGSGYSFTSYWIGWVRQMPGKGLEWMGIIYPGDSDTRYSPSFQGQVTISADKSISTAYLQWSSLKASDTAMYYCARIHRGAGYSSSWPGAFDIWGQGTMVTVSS VL: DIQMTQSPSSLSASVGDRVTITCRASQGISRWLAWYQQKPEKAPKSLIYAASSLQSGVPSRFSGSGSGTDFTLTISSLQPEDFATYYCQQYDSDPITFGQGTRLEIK .
## Result 5210
